- ASSAY_EXPLANATION: Cytotoxicity against human HL60 cells assessed as growth inhibition after 24 hrs by resazurin dye based assay
- Assay type: cell-based, HL-60
ENDPOINT: GI50 at 24 h

>>> endpoint_result("C#CCN[C@@H]1C=C[C@]2(O[C@H]([C@@H](CC)C(=O)[C@@H](C)[C@@H](O)[C@H](C)[C@@H]3O[C@@H]([C@@H](CC)C(=O)O)CC[C@@H]3C)[C@@H](C)C[C@H]2C)O[C@@]12CC[C@@](C)([C@H]1CC[C@](O)(CC)[C@H](C)O1)O2")
"10.5 µM"

Let's switch to this compound now.
IN: I'd like to know its GI50 at 24 h. The compound in question is CC[C@@H](C(=O)[C@@H](C)[C@@H](O)[C@H](C)[C@@H]1O[C@@H]([C@@H](CC)C(=O)OCC(F)(F)F)CC[C@@H]1C)[C@H]1O[C@]2(C=C[C@@H](O)[C@]3(CC[C@@](C)([C@H]4CC[C@](O)(CC)[C@H](C)O4)O3)O2)[C@H](C)C[C@@H]1C
OUT: 32.5 µM
